Record form. Attribute: DC50. Fill in for each entry.
- Target Under Test: PIP4K2C (Homo sapiens)
- Sequence (Q8TBX8 whole entry): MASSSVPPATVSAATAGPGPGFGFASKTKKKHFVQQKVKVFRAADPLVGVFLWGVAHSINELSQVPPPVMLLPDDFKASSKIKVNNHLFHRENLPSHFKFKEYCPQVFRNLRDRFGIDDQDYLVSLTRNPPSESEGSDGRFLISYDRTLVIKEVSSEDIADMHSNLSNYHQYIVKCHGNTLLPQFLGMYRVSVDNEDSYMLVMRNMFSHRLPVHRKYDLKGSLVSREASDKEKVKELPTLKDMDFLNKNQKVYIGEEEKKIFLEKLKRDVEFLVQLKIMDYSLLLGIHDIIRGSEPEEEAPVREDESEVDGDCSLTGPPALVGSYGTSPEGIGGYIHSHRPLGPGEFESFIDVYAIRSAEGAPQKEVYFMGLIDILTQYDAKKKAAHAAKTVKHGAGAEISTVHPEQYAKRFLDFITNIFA
- Experimental Details: HiBiT PIP4K2C degradation assay in MOLT-4 cells (endogenous PIP4K2C C-terminally tagged with HiBiT)
- Type: cell-based
- Parameters: untagged in primary human PBMCs and monocyte-derived dendritic cells
- Conditions: 24 hours incubation, MOLT-4, top concentration 10 micromolar; read-out: HiBIT-degradation MOLT4 PIP4k2C 24 hours DC50

Prompt line: Can you share its DC50? I mean this compound: Cn1c(=O)n(C2CCC(=O)NC2=O)c2ccc(C3CCN(CCN4CCN(C(=O)[C@H]5CCC[C@@H](Nc6ncc(Cl)c(-c7cccc(-c8ccccc8)c7)n6)C5)CC4)CC3)cc21 (relative stereo) [Compound 49]
Response line: < 500 nM

Prompt line: Then Cn1nc(C2CCC(=O)NC2=O)c2ccc(N3CCC(N4CCC(CNC(=O)[C@H]5CCC[C@@H](Nc6ncc(F)c(-c7cccc(-n8ccccc8=O)c7)n6)C5)CC4)CC3)cc21 (relative stereo) [Compound 333] ?
Response line: < 500 nM

As a next step, examine the compound that follows.
Prompt line: What measured DC50 goes with O=C(COc1ccc2c(c1)CN(C1CCC(=O)NC1=O)C2=O)NCCCC(=O)N1CCC(C(=O)N2CCC(Nc3ncc(Cl)c(-c4cccc(-c5ccccc5)c4)n3)CC2)CC1 (stereo not drawn) [Compound 68] ?
Response line: < 500 nM

Data provenance is patent US20260355196A1.
